B1: LINE1-mini (parent)
chain: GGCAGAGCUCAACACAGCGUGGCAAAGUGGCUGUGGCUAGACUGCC

Variants of: B1
experiment summary: self-cleavage, relative activity (ratio to wild type); higher = more cleavage; in vitro, sequencing; the parent is a self-cleaving ribozyme
Answer criterion not met if self-cleavage is under 0.3, and criterion met if it is 0.3 or more.

> print(dat)
                         biopolymer.sequence     assigned.label
 1  GGCAGAGCUCAACACAGCGUGUCAAAGUGGCUGUGUCUAGACUGCC [G22U G36U]  criterion not met
 2  GGCAGAGCUCAAGACAGCUUGGCAAAGUGGCUGUGGCUAGACUGCC [C13G G19U]  criterion not met
 3  GGCACAGCUCAACACAGCGUGGCAAAGUGGCUGUGGCUAGCCUGCC [G5C A41C]  criterion not met
 4  GGCAGAGCUCAACACAGCGUGGCCAAAUGGCUGUGGCUAGACUGCC [A24C G27A]      criterion met
 5  GGCAGAGCUCAACACAGCGUGGCAAAGGGGCUUUGGCUAGACUGCC [U28G G33U]  criterion not met
 6  GGCAGAACUCAACACAGCGUGGCAAAGUGGCUGUGGCUAGAAUGCC [G7A C42A]  criterion not met
 7  GGCGGAGCUCAACACAGCGUGGCAAAUUGGCUGUGGCUAGACUGCC [A4G G27U]      criterion met
 8  GGCAGAGCUCUACACAGCGUGGCAGAGUGGCUGUGGCUAGACUGCC [A11U A25G]  criterion not met
 9  GGCAGAGCUCAACACAGCGUGGGAAAGUGGCUAUGGCUAGACUGCC [C23G G33A]      criterion met
10  GGCAGAGCUCAACACAGCGUGGCAAAGUGGCUGUAGGUAGACUGCC [G35A C37G]  criterion not met
11  GGCAGAGCUCAACACAGCGUGGCAACGUGGCUGUGGCAAGACUGCC [A26C U38A]      criterion met
12  GGCGGAGCUCAACACAGCGUGGGAAAGUGGCUGUGGCUAGACUGCC [A4G C23G]      criterion met
13  GGCUGAGCUCAACACAGCGUGGCAAAAUGGCUGUGGCUAGACUGCC [A4U G27A]  criterion not met
14  GGGAGAGCUCAACACAGCGUGGCAAAGUGGCUGUGGCUAGACUGCC [C3G]      criterion met
15  GGCAGAGGUCAACACAGCGUGGCAAAGUGGCUGUGGCUAGACAGCC [C8G U43A]  criterion not met
16  GGCUGAGCUCAACACAGCGUGGCAAACUGGCUGUGGCUAGACUGCC [A4U G27C]  criterion not met
17  GGCAGAGCUCAGCACAGCGUGGCAAAGUGGCUAUGGCUAGACUGCC [A12G G33A]  criterion not met
18  GGCAGAGCUGAACACAGCGUGGCAAAGUGGCUGUGUCUAGACUGCC [C10G G36U]  criterion not met
19  GGCAGAACUCAACCCAGCGUGGCAAAGUGGCUGUGGCUAGACUGCC [G7A A14C]      criterion met
20  GGCGGAGCUCAACACAGCGUGGCAAAGUGGCUGUGGCUCGACUGCC [A4G A39C]  criterion not met
21  GGCAGAGCUCAACACAGCGUGGCAAAGUGGUUGUGUCUAGACUGCC [C31U G36U]  criterion not met
22  GGCAGAGCUCAAGACAGCGUGGCAAAUUGGCUGUGGCUAGACUGCC [C13G G27U]  criterion not met
23  GGCAGAGCUCAACACGGCGUGGCAAAGUGGCUGUUGCUAGACUGCC [A16G G35U]  criterion not met
24  GGCAGAGCUCAUUACAGCGUGGCAAAGUGGCUGUGGCUAGACUGCC [A12U C13U]  criterion not met
25  GGCAGAGCUCAACACAGCGUGGCAAAGUGGCUGUGGGUAGACAGCC [C37G U43A]  criterion not met
26  GGCAGAGCUCAACAUAGCGUGGCAAAGUGGCUGUAGCUAGACUGCC [C15U G35A]  criterion not met
27  GGCAGAGCUCAACACAGCGUGGCAAAGUGGCUGUGGCUAGACCUCC [U43C G44U]  criterion not met
28  GGUAGAGCUCAACGCAGCGUGGCAAAGUGGCUGUGGCUAGACUGCC [C3U A14G]      criterion met
29  GGCAGAGCUCAACUCAGCGUGGCAAAGUGGCUGUGGCUAGACUGUC [A14U C45U]      criterion met
30  GGCAGAGCUCAACACAGCGUGUCGAAGUGGCUGUGGCUAGACUGCC [G22U A24G]      criterion met
31  GGCAGAUCUCAACACAGCGCGGCAAAGUGGCUGUGGCUAGACUGCC [G7U U20C]  criterion not met
32  GGCAUAGCUCAACACAGCGUGGCAAAUUGGCUGUGGCUAGACUGCC [G5U G27U]  criterion not met
33  GGCAGAGCUCAACACAGCGUAACAAAGUGGCUGUGGCUAGACUGCC [G21A G22A]      criterion met
34  GGCAGUGCUCAACACAGCGUGGCAAAGUGGCUGUGGCUAGACUGCG [A6U C46G]      criterion met
35  GGCAGAGCUCAACACAUCGUGGCAAAGUGGAUGUGGCUAGACUGCC [G17U C31A]      criterion met
36  GGCAGAUCUCAACACAGCGUGGCAUAGUGGCUGUGGCUAGACUGCC [G7U A25U]  criterion not met
37  GGCAGAGCUAAACACAGCGGGGCAAAGUGGCUGUGGCUAGACUGCC [C10A U20G]  criterion not met
38  GGCAGAGCUCAACACAGCGUGCCAAAGUGGCUGUGGCUAGACUGUC [G22C C45U]      criterion met
39  GGCAGAGCUUAACACAGCGUGGCAAAGUGGCUGUGACUAGACUGCC [C10U G36A]  criterion not met
40  GGCAGAGCUCAACACAACGUGGCCAAGUGGCUGUGGCUAGACUGCC [G17A A24C]  criterion not met
41  GGCAGAGAACAACACAGCGUGGCAAAGUGGCUGUGGCUAGACUGCC [C8A U9A]  criterion not met
42  UGCAGAGCUCAACACAGCGUGGCAAAGUGCCUGUGGCUAGACUGCC [G1U G30C]  criterion not met
43  GGCAGAGCUCCACACAGCGUGGCAAUGUGGCUGUGGCUAGACUGCC [A11C A26U]  criterion not met
44  GGCAGAGCUCAACACAGCGUGGCAAAGUGGCUCUGGCUUGACUGCC [G33C A39U]  criterion not met
45  GGCAGCGCUCAACACAGCGUGGCAAAGUGGCUGUGGCCAGACUGCC [A6C U38C]  criterion not met
